assay-remarks: Caco-2 cell permeability assay
Type: in vitro ADME, human
assay-context: human, Caco-2, basolateral to apical, 40 min, 37° C.
endpoint: Papp B→A at 40 min, 10 μM

Examples from the recorded data:
Query (compound): `CC[C@@H](NC(=O)N1C(=O)[C@H](Cc2cc(C)nc(N)c2)[C@H]1C(=O)N(C)c1ccnn1C)c1ccc(C)c(F)c1` ; field requested: Papp B→A at 40 min, 10 μM
11 to 30 ×10⁻⁶ cm/s

Which Papp B→A at 40 min, 10 μM is listed for `CC[C@@H](NC(=O)N1C(=O)[C@H](Cc2ccnc(N)c2)[C@H]1C(=O)N(C)c1cscn1)c1cccc(Cl)c1` ?
11 to 30 ×10⁻⁶ cm/s

Look up Papp B→A at 40 min, 10 μM for this compound: `CC[C@@H](NC(=O)N1C(=O)[C@H](Cc2cc(C)nc(N)c2)[C@H]1C(=O)N(C)c1ccnn1C)c1ccc(F)c(F)c1`
11 to 30 ×10⁻⁶ cm/s

---
# input compound: `CC[C@@H](NC(=O)N1C(=O)[C@H](Cc2ccnc(N)c2)[C@H]1C(=O)N(C)c1cscn1)c1ccccc1` ; wanted: its Papp B→A at 40 min, 10 μM
31 to 50 ×10⁻⁶ cm/s

* * *

This document collects IC50 values reported for Factor XIa (Homo sapiens (Human), UniProt P03951).

The following compounds have reported results that may help.
Record CC[C@@H](NC(=O)N1C(=O)[C@H](Cc2ccnc(NC)c2)[C@H]1C(=O)N(C)c1cccs1)c1cccc(Cl)c1 [Compound 1-44] : what is its IC50 with Factor XIa (Homo sapiens (Human), UniProt P03951)?
< 10 nM

Return IC50 measured with Factor XIa (Homo sapiens (Human), UniProt P03951) given this compound: CC[C@@H](NC(=O)N1C(=O)[C@H](Cc2cc(C)nc(N)c2)[C@H]1C(=O)N(C)c1cnn(C)c1)c1cccc(Cl)c1 [Compound 1-15]
Sequence (P03951 388-625): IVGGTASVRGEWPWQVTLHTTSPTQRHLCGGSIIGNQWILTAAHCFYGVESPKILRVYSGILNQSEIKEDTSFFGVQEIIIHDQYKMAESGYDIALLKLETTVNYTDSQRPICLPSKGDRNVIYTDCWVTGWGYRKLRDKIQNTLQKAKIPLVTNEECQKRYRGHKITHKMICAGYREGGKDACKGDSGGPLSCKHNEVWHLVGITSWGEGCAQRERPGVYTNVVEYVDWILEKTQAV
Sequence (P03951 19-387 partner): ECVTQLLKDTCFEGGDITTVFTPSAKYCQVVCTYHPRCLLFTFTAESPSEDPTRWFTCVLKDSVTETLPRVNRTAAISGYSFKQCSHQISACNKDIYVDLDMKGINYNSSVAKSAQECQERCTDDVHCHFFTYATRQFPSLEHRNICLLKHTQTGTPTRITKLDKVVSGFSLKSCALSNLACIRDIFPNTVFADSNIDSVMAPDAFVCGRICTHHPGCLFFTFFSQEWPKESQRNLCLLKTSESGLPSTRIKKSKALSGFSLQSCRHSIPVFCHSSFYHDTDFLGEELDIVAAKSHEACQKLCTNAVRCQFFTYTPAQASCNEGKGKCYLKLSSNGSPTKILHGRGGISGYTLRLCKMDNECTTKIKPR
10 to 100 nM

For the record CC[C@@H](NC(=O)N1C(=O)[C@H](Cc2cc(C)nc(N)c2)[C@H]1C(=O)N(C)c1nccn1C)C1CCCCC1 [Compound 1-75] , what value of IC50 is listed for Factor XIa (Homo sapiens (Human), UniProt P03951)?
10 to 100 nM

New cases:
Any idea what IC50 came out for CC[C@@H](NC(=O)N1C(=O)[C@H](Cc2ccnc(N)c2)[C@H]1C(=O)N(C)c1nccn1C)c1ccc(C)cc1C [Compound 1-114] on Factor XIa (Homo sapiens (Human), UniProt P03951)?
< 10 nM

Kindly state the measured IC50 obtained for CC[C@@H](NC(=O)N1C(=O)[C@H](Cc2ccnc(N)c2)[C@H]1C(=O)N(C)c1nccn1C)c1ccccc1Cl [Compound 1-83] with Factor XIa (Homo sapiens (Human), UniProt P03951).
10 to 100 nM

// lookup IC50 | system=Factor XIa (Homo sapiens (Human), UniProt P03951) | key= CC[C@@H](NC(=O)N1C(=O)[C@H](Cc2ccnc(N)c2)[C@H]1C(=O)N(C)c1cn(C)cn1)c1ccccc1 [Compound 1-90]
< 10 nM

Request body: readout IC50, system Factor XIa (Homo sapiens (Human), UniProt P03951), query CC[C@@H](NC(=O)N1C(=O)[C@H](Cc2ccnc(N)c2)[C@H]1C(=O)N(C)c1ccn(C)n1)C1CCCCC1 [Compound 1-47] . Return the value.
< 10 nM

API: value(readout=IC50, system=Factor XIa (Homo sapiens (Human), UniProt P03951)) for record CC[C@@H](NC(=O)N1C(=O)[C@H](Cc2ccnc(N)c2)[C@H]1C(=O)N(C)c1ccn(C)n1)c1ccc(C)c(C)c1 [Compound 1-127]
< 10 nM

Please tell me: IC50 of CC[C@@H](NC(=O)N1C(=O)[C@H](Cc2cc(C)nc(N)c2)[C@H]1C(=O)N(C)c1cnn(C)c1)c1cc(C)ccc1F [Compound 1-177] , system Factor XIa (Homo sapiens (Human), UniProt P03951)?
10 to 100 nM

Can you look up IC50 on Factor XIa (Homo sapiens (Human), UniProt P03951) for CC[C@@H](NC(=O)N1C(=O)[C@H](Cc2ccnc(N)c2)[C@H]1C(=O)N(C)c1nccn1C)c1cc(C)ccc1F [Compound 1-102] ?
< 10 nM

Notebook: pull reported IC50 for Factor XIa (Homo sapiens (Human), UniProt P03951), entry CC[C@@H](NC(=O)N1C(=O)[C@H](Cc2ccnc(N)c2)[C@H]1C(=O)N(C)c1cscn1)c1ccccc1 [Compound 1-8]
< 10 nM

Query for Factor XIa (Homo sapiens (Human), UniProt P03951): what IC50 does the record show for CC[C@@H](NC(=O)N1C(=O)[C@H](Cc2cc(C)nc(N)c2)[C@H]1C(=O)N(C)c1ccn(C)n1)c1ccc(C)c(C)c1 [Compound 1-145] ?
< 10 nM

Give recorded IC50 with Factor XIa (Homo sapiens (Human), UniProt P03951) for the following compound: CC[C@@H](NC(=O)N1C(=O)[C@H](Cc2cc(C)nc(N)c2)[C@H]1C(=O)N(C)c1nccn1C)c1cccc(Cl)c1 [Compound 1-43]
< 10 nM

Which measured IC50 belongs to CC(C)[C@@H](NC(=O)N1C(=O)[C@H](Cc2ccnc(N)c2)[C@H]1C(=O)N(C)c1nccn1C)c1ccccc1 [Compound 1-85] , tested on Factor XIa (Homo sapiens (Human), UniProt P03951)?
10 to 100 nM

Please state recorded IC50 (tested on Factor XIa (Homo sapiens (Human), UniProt P03951)) of CC[C@@H](NC(=O)N1C(=O)[C@H](Cc2cc(C)nc(N)c2)[C@H]1C(=O)N(C)c1ccnn1C)c1cccc(C)c1C [Compound 1-149]
10 to 100 nM
